Each item that follows carries a reported growth.
- System: MDA-MB-231 breast
- EXPERIMENT_SUMMARY: NCI-60 one-dose screen, 48 h (100 = growth as untreated, 0 = no growth, -100 = all killed)
- CONDITION_INFO: 10 µM unless noted
This is part of a sample that, as a whole, favours compounds with a hit. Of some 83,000 tested, about 20% had one in any assay.
VALUE_KIND: growth (%)

>>> value_observed("Cc1cccc(NC(=O)N/C(N)=N/c2nc(C)c(C)s2)c1")
65.2
>>> value_observed("c1ccc2cc3nc4cc5ccccc5cc4nc3cc2c1")
86.6
>>> value_observed("COc1ccc(-c2nc3ccc4[nH]ncc4c3c3c2CCCC3)cc1B(O)O")
69.3
>>> value_observed("C[C@H]1[C@H]2[C@H]3CC[C@@H]4[C@@]5(C)C/C(=C/c6cccnc6)C(=O)C(C)(C)[C@@H]5CC[C@@]4(C)[C@]3(C)CC[C@]23CO[C@]1(C)[C@@H](C(=O)/C=C\\c1cccnc1)C3")
-30.7
>>> value_observed("COC(=O)c1c2c(c[n+]([O-])c1C)C(=O)C=CC2=O")
49.9
>>> value_observed("COc1ccc(-c2nc(SC(C)C)nc(NNC(N)=S)c2C#N)cc1")
43.3
>>> value_observed("CCOc1c(C#N)nnc2c(C#N)c(NC(=O)c3ccccc3)nn12")
100
>>> value_observed("c1csc(-c2c3ccc(=[N+]4CCCCC4)cc-3oc3cc(N4CCCCC4)ccc23)c1")
-50.9
>>> value_observed("COc1cc(OC)cc(C2CC(=O)Nc3c2c(C)nn3-c2nc3ccccc3[nH]2)c1 (centres undefined)")
16.5
